target: androgen receptor (hAR) (Homo sapiens (Human), UniProt P10275); test: Test of transcriptional activity (hAR / ARE-Luc dual-luciferase assay in CHO cells); assay type: cell-based; details: EC50 [nM] (mean ± SE), CHO cells with hAR and ARE-Luc, 24 hours; 10 nM DHT = 100%
Sequence (P10275 whole entry): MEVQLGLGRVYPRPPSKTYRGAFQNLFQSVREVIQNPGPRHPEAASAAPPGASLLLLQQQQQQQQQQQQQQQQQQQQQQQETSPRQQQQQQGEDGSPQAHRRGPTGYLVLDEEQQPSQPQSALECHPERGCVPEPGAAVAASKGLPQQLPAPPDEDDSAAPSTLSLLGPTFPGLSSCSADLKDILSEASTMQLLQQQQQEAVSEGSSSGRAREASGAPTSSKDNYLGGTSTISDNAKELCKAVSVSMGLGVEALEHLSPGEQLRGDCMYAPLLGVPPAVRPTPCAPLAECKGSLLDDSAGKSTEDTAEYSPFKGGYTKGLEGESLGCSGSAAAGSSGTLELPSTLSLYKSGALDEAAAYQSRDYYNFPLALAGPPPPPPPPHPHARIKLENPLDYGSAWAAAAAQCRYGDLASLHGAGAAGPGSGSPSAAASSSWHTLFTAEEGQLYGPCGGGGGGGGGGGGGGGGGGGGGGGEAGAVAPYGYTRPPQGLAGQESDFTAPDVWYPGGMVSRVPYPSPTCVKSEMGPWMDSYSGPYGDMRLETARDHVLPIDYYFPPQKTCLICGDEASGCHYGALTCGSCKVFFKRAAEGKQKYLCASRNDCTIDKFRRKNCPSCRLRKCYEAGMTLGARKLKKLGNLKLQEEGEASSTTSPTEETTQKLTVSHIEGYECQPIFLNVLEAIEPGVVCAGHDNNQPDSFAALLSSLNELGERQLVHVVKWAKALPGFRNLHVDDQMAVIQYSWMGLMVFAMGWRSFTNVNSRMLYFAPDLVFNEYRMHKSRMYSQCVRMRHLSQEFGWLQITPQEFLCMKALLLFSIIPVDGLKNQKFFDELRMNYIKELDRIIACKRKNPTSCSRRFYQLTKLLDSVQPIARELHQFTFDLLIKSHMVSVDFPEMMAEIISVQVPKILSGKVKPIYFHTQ
EC50 values by entry
Please state the figure in nM; there is no need to write the unit.

- ITEM_SMILES: "CC(C)(C)OC(=O)NCc1ccc(OC[C@@H]2CN(c3ccc(C#N)c(C(F)(F)F)c3)[C@@H](C(F)(F)F)O2)cc1"
  EC50, nM: 926
- ITEM_SMILES: "N#Cc1ccc(N2C[C@@H](COc3ccncc3)O[C@@H]2C(F)(F)F)cc1Cl"
  EC50, nM: 1.03
- ITEM_SMILES: "N#Cc1ccc(N2C[C@@H](COc3ccc(CO)cc3)O[C@@H]2C(F)(F)F)cc1C(F)(F)F"
  EC50, nM: 3.93

# input for lookup
Query block: Record request: EC50 value, item N#Cc1ccc(N2C[C@@H](COc3ccc([N+](=O)[O-])cc3F)O[C@@H]2C(F)(F)F)cc1C(F)(F)F
Result block: 10.7

FYI, the data here is from patent US9809583B2.
